pIC50: −log10 of the molar value.
Hi, quick share: literature pIC50 data for Platelet-derived growth factor receptor beta (Homo sapiens, UniProt P09619), several sources combined.

Batch request: pIC50 per item, same order as input.
1. O=C(N[C@H]1CCCC[C@@H]1O)c1ccc(F)c(/C=C(\F)c2cncc(NC3CCOCC3)c2)c1
2. Cc1ccc(C(=O)N[C@H]2CCCC[C@@H]2O)cc1NC(=O)c1cncc(OCC2CC(F)(F)C2)c1
3. Cn1cc(-c2cc(Oc3cccc(NC(=O)c4ccc(C(=O)c5ccccc5)cc4)c3)ccn2)cn1
4. CCn1cc2ncc(N[C@@H](C)c3cccc(NC(=O)c4cncc(F)c4)c3)nc2n1
5. COC(=O)c1cc(C)c(/C=C2\C(=O)Nc3ccccc32)[nH]1
6. CCn1nc(C(=O)Nc2cccc([C@H](C)Nc3cnc4cnn(C)c4n3)c2)cc1C(C)C
7. Cc1ccc(F)c(NC(=O)Nc2ccc(Oc3ccnc4cc(C(=O)NCCCN5CCN(C)CC5)sc34)cc2)c1

Solution:
1. 8.29
2. 7.40
3. < 5.00
4. ≤ 6.00
5. < 4.00
6. > 6.52
7. 8.05

// batch mode: one pIC50 value per listed entry
1. C=Cc1ccc(C(=O)Nc2cccc([C@H](C)Nc3cnc4cnn(C)c4n3)c2)cc1C
2. CCn1cc2ncc(N[C@@H](C)c3cccc(NC(=O)c4ccc(CN(C)C)cc4)c3)nc2n1
3. CCn1cc2ncc(N[C@@H](C)c3cccc(NC(=O)Cc4ccc(C)cn4)c3)nc2n1
4. C[C@H](Nc1cnc2cnn(C)c2n1)c1cccc(NC(=O)c2cnc3c(ccn3C)c2)c1
5. CCn1cc2ncc(N[C@@H](C)c3cccc(NC(=O)c4ccc5c(c4)OCO5)c3)nc2n1
6. CCc1c[nH]c2ncc(N[C@@H](C)c3cccc(NC(=O)c4cncc(C)c4)c3)nc12

Solution:
> 6.52
≤ 6.00
≤ 6.00
> 6.52
6.00 to 6.52
> 6.52

Kindly give each listed record's pIC50.
1. C[C@H](Nc1cnc2cnn(C)c2n1)c1cccc(NC(=O)c2ccc(NC3CC3)nc2)c1
2. Cc1n[nH]c2ncc(N[C@@H](C)c3cccc(NC(=O)c4cnn(C5CC5)c4)c3)nc12
3. Cc1cc(-c2cc(O)ccc2Cl)cc2nnc(Nc3ccc(S(=O)(=O)C4CCNCC4)cc3)nc12

Solution:
1. > 6.52
2. > 6.52
3. 8.55

* * *

pIC50: −log10 of the molar value.
From various publications: pIC50 for UniProt P09619.

CCN(CC)CCNC(=O)c1cc(NC(=O)Nc2cccc(Oc3cc(-c4nnco4)ncn3)c2)cc(C(F)(F)F)c1; ≥ 5.00
CCn1cc2ncc(N[C@@H](C)c3cccc(NC(=O)c4cnc(Br)s4)c3)nc2n1; 6.00 to 6.52
Cc1ccc(C(=O)N[C@H]2CCCC[C@@H]2O)cc1NCc1cncc(-c2cnccn2)c1; 6.59
CSc1cc(C(=O)Nc2cccc([C@H](C)Nc3cnc4cnn(C)c4n3)c2)ccc1CN1CCN(C)CC1; > 6.52
Cn1cc(-c2nccc(Oc3cc(NC(=O)Nc4ccc(Cl)c(C(F)(F)F)c4)c(F)cc3F)n2)cn1; ≥ 5.00

Please give pIC50 for each item listed below.
1. Nc1ccc(C#Cc2ccc3nc(NC(=O)Nc4ccc(F)c(Cl)c4)cn3n2)cc1
2. O=C(N[C@H]1CCCC[C@@H]1O)c1ccc(Cl)c(OCc2cncc(-c3ncccn3)c2)c1
3. CCn1cc2ncc(N[C@@H](C)c3cccc(NC(=O)c4ccc(C5CC5)s4)c3)nc2n1
4. CCn1cc2ncc(N[C@@H](C)c3cccc(NC(=O)c4ccc(F)c(C)c4)c3)nc2n1
5. CCn1cc2ncc(N[C@@H](C)c3cccc(NC(=O)c4ccc(C(F)(F)F)cc4)c3)nc2n1
6. C[C@H](Nc1cnc2cnn(C)c2n1)c1cccc(NC(=O)c2cnn(C3CCC3)c2)c1
7. CC(C)(C)c1ccc(-n2cccc(N3CCc4nc(N)ncc4C3)c2=O)cc1

Solution:
[5.18, 6.68, "> 6.52", "> 6.52", "> 6.52", "> 6.52", 6.18]

For each of the compounds below, note its pIC50.
1. Cn1cc(-c2cc(Oc3ccc(NC(=O)N4CCC5(CCC(=O)C5)C4=O)nc3)ccn2)cn1 (stereo not shown)
2. C[C@H](Nc1cnc2cnn(C)c2n1)c1cccc(NC(=O)c2cncc(C3CC3)c2)c1
3. CCc1cc(C(=O)Nc2cccc([C@H](C)Nc3cnc4cn(CC)nc4n3)c2)ccc1CN1CCN(C)CC1
4. CCn1cc2ncc(N[C@@H](C)c3cccc(NC(=O)c4ccc(N5CCCC5)nc4)c3)nc2n1

Solution:
1: 6.14; 2: > 6.52; 3: > 6.52; 4: 6.00 to 6.52

* * *

// read-out IC50, gathered for Platelet-derived growth factor receptor beta (Homo sapiens, UniProt P09619) from published studies

The following compounds each have a reported value; give each one's IC50.
1. Cc1cncc(C(=O)Nc2cccc([C@H](C)Nc3cnc4cn(CC5CC5)nc4n3)c2)c1
2. C=C(C)c1ncc(C(=O)Nc2cccc([C@H](C)Nc3cnc4cnn(C)c4n3)c2)cc1C
3. Cc1cccc(C)c1-c1cc(NS(C)(=O)=O)c2nc(Nc3ccc(OCCN4CCCC4)cc3)nnc2c1
4. Cc1cnc(Nc2ccc(N3CCN(C)CC3)cc2)nc1Nc1ccc2cnn(C)c2c1
5. Cn1ncc2c(C#Cc3cccc(NC(=O)Nc4ccccc4)c3)cncc21
6. O=C(Nc1ccc(C#Cc2ccc3nc(NC(=O)Nc4ccc(F)c(Cl)c4)cn3n2)cc1)Nc1ccc(F)c(Cl)c1
7. Cc1cc(C(=O)Nc2cccc([C@H](C)Nc3cnc4cnn(C)c4n3)c2)cnc1C#N
8. C[C@H](Nc1cnc2cnn(C)c2n1)c1cccc(NC(=O)c2cnn(C3CC3)c2)c1

Solution:
1: < 300 nM; 2: < 300 nM; 3: 15.7 nM; 4: 7.3 nM; 5: < 1000 nM; 6: 3610 nM; 7: < 300 nM; 8: < 300 nM

Report IC50 for every entry below.
1. C=Cc1ncc(C(=O)Nc2cccc([C@H](C)Nc3cnc4cnn(C)c4n3)c2)cc1C
2. COCCOCCOCCOCCOCCOCCOCCN1CCN(Cc2ccc(C(=O)Nc3ccc(C)c(Nc4nccc(-c5cccnc5)n4)c3)cc2)CC1

Solution:
1: < 300 nM; 2: 310 nM

Please go through the list and note IC50 for each compound.
1. Cc1cncc(C(=O)Nc2cccc([C@H](C)Nc3cnc4cccc(F)c4c3)c2)c1
2. Cc1cncc(C(=O)Nc2cccc([C@H](C)Nc3cnc4cn(-c5ccccc5)nc4n3)c2)c1
3. COC(=O)CNCCCNC(=O)c1cc2nccc(Oc3cccc(C(=O)Nc4cc(C)ccc4F)c3)c2s1
4. Nc1ncnc2c1c(-c1ccc3occc3c1)cn2C1CC(CNC(=O)C(F)(F)F)C1 (stereo not shown)
5. CCOc1cc(OCC)cc(C(=O)Nc2cccc(Oc3cc(-c4cnn(C)c4)ncn3)c2)c1
6. CCOC(=O)c1cc(C)c(/C=C2\C(=O)Nc3ccc(Cl)cc32)[nH]1

Solution:
1. < 300 nM
2. < 300 nM
3. 59 nM
4. 2450 nM
5. ≤ 10000 nM
6. > 100000 nM

* * *

pIC50: −log10 of the molar value.
pIC50 for Platelet-derived growth factor receptor beta (Homo sapiens, UniProt P09619), merged from several publications.

// below: answered molecules
COCCOc1ccc(NC(=O)Nc2cc(Oc3ccnc(-c4cnn(C)c4)n3)c(F)cc2F)cc1C(F)(F)F; ≥ 5.00
Cc1cncc(C(=O)Nc2cccc([C@H](C)Nc3cnc4cn(CCN5CCOCC5)nc4n3)c2)c1; ≤ 6.00
Cc1ccc(C(=O)N[C@H]2CCCC[C@@H]2O)cc1NC(=O)c1cncc(OC(C)C)c1; 6.77
Cc1ccc(F)c(NC(=O)Nc2ccc(Oc3ccnc4cc(C(=O)NCCN)sc34)cc2F)c1; 7.82
Cn1cc(-c2cc(Oc3cccc(NC(=O)c4ccccc4-n4cccc4)c3)ccn2)cn1; ≥ 5.00

Please give pIC50, item by item, for the list that follows.
1. COc1cncc(C(=O)Nc2cccc([C@H](C)Nc3cnc4cnn(C)c4n3)c2)c1
2. Cc1ccc(C(=O)N[C@H]2CCCC[C@@H]2O)cc1N[C@@H](C)c1cncc(-c2ncccn2)c1
3. CN(C)CCNc1nc(-c2cc(Oc3cccc(NC(=O)Nc4ccc(Cl)c(C(F)(F)F)c4)c3)ncn2)cs1

Solution:
1: > 6.52; 2: 6.64; 3: ≥ 5.00

// each molecule listed below needs its pIC50
1. O=C(Nc1ccc(Oc2cc(-c3ncno3)ncn2)cc1)Nc1ccc(Cl)c(C(F)(F)F)c1
2. C[C@H](Nc1cnc2cnn(C)c2n1)c1cccc(NC(=O)c2ccc(C3CC3)s2)c1
3. Cc1ccc(C(=O)N[C@H]2CCCC[C@@H]2O)cc1Nc1ccnc(-c2cccnc2)n1
4. Cc1n[nH]c2ncc(N[C@@H](C)c3cccc(NC(=O)c4cnc(C5CC5)s4)c3)nc12

Solution:
1: ≥ 5.00; 2: > 6.52; 3: 7.29; 4: > 6.52

Provide reported pIC50 for each item, in the same order as listed.
1. Cc1ccc(C(=O)N[C@H]2CCCC[C@@H]2O)cc1C#Cc1cncc(C2CC2)n1
2. Cn1cc(-c2cc(Oc3cccc(NC(=O)c4cc(OC(F)(F)F)cc(OC(F)(F)F)c4)c3)ccn2)cn1
3. Cc1cc(C(=O)Nc2cccc([C@H](C)Nc3cnc4cnn(C)c4n3)c2)ccc1CN1CCOCC1
4. CCn1cc2ncc(N[C@@H](C)c3cc(NC(=O)Cc4cc(C)c(F)cn4)ccc3C)nc2n1
5. O=C(Nc1cccc(C#Cc2ccc3nccn3n2)c1)c1ccc(F)c(Cl)c1

Solution:
1. 7.10
2. < 5.00
3. > 6.52
4. > 6.52
5. 6.03

State the recorded pIC50 for every item in the following list.
1. CCn1cc2ncc(N[C@@H](C)c3cc(NC(=O)Cc4ccc(F)c(C)n4)ccc3C)nc2n1
2. CCn1cc2ncc(N[C@@H](C)c3cccc(NC(=O)c4ccc(Cn5ccnc5)c(C)c4)c3)nc2n1
3. Cc1cccc(C)c1-c1cc(C)c2nc(Nc3ccc(OCCCN4CCN(C)CC4)cc3)nnc2c1
4. Cc1ccc(C(=O)N[C@H]2CCCC[C@@H]2O)cc1NC(=O)c1cncc(-c2cccc(OC(F)(F)F)c2)c1
5. O=C(N[C@H]1CCCC[C@@H]1O)c1ccc(F)c(/C=C(\F)c2cnc(NC3CC3)nc2)c1
6. CC(=O)c1c(/C=C2\C(=O)Nc3ccc(Br)cc32)[nH]c(C(=O)NCCCN2CCCC2)c1C
7. C[C@H](Nc1cnc2cnn(C)c2n1)c1cccc(NC(=O)c2ccc(C(F)F)s2)c1

Solution:
["> 6.52", "> 6.52", 7.30, 7.72, 7.21, "< 4.00", "> 6.52"]

// each listed molecule needs a value for pIC50
1. NC(=O)Cn1ccc(-c2cc(Oc3cccc(NC(=O)Nc4ccc(Cl)c(C(F)(F)F)c4)c3)ncn2)n1
2. Cn1cc(-c2cc(Oc3cccc(NC(=O)c4ccc(OC(F)(F)F)cc4)c3)ncn2)cn1

Solution:
1: ≥ 5.00; 2: < 5.00

List the reported pIC50 of each molecule below.
1. C[C@H](Nc1cnc2cnn(C)c2n1)c1cccc(NC(=O)c2ccc3c(c2)CCC(=O)O3)c1
2. Cc1cc(C(=O)Nc2cccc([C@H](C)Nc3cnc4cnn(C)c4n3)c2)ccc1C(=O)OCCN
3. Cc1cncc(C(=O)Nc2cccc([C@H](C)Nc3cnc4cccc(Cl)c4n3)c2)c1

Solution:
["> 6.52", "> 6.52", "> 6.52"]

Please state, for each entry, its recorded pIC50.
1. Cc1n[nH]c2ncc(N[C@@H](C)c3cccc(NC(=O)c4cc(C(F)(F)F)n(C)n4)c3)nc12
2. CC(C)c1ccc(NC(=O)c2cc(N3Cc4cnc(N)nc4C3)ccn2)cc1

Solution:
["> 6.52", "< 5.00"]
